# targetOrSystem: estrus urinary lipocalin protein (EULP)
# Construct: native, purified from female rat urine by Sephadex G-50 gel filtration; printed peptides MSNKFL, KFLGTWKLT, KLTSSENFD, NFDEYMKAL, LGTRSLGNL, LAGPTVIIS, ITIRTESGF, GFKNTEISF, FEETTADNR, RKTKSTVTL, KSTVTLAGG, NGNETTIKR, SVVCTRIYE
# testMethodNotes: fluorescence binding of 2-naphthol probe
# details: 10 mM phosphate buffer pH 7.2, room temperature; fluorescent probe
assayEndpoint: pKd
One number for each entry, as −log10 of the molar value.

Give its pKd value. Item: Oc1ccc2ccccc2c1 [2-naphthol]
6.38
